METHOD: Water solubility at room temperature
Format: physicochemical
RUN_PARAMETERS: water, pH 5; at a pH of 5; read-out: water solubility
Square brackets hold non-standard residues; d marks the D form. Peptide text beside a SMILES is read from it. * marks the point of attachment. dPhe(4-Cl) = N[C@H](Cc1ccc(Cl)cc1)C(=O)O; Nicotinoyl(6-NH2) = Nc1ccc(C(=O)*)cn1; d1Nal = N[C@H](Cc1cccc2ccccc12)C(=O)O; Lys(iPr) = CC(C)NCCCC[C@H](N)C(=O)O; d3Pal = N[C@H](Cc1cccnc1)C(=O)O; Picolinoyl = O=C(c1ccccn1)*; dOrn = NCCC[C@@H](N)C(=O)O
QUANTITY: solubility

Query :: Data request, read-out solubility, for CC(=O)N[C@H](Cc1cccc2ccccc12)C(=O)N[C@H](Cc1ccc(Cl)cc1)C(=O)N[C@H](Cc1cccnc1)C(=O)N[C@@H](CO)C(=O)N[C@@H](CCCCNC(=O)c1ccccn1)C(=O)N[C@H](CCCNC(=O)c1ccc(N)nc1)C(=O)N[C@@H](CC(C)C)C(=O)N[C@@H](CCCCNC(C)C)C(=O)N1CCC[C@H]1C(=O)N[C@H](C)C(N)=O [orntide acetate] (Ac-[d1Nal][dPhe(4-Cl)][d3Pal]SK(Picolinoyl)[dOrn](Nicotinoyl(6-NH2))L[Lys(iPr)]P[dA]-NH2; N-terminus and C-terminus assumed)
Result :: < 5000 µg/mL
